// data source = patent US4748161A

Assign Body weight during feed period, 8th day to each entry below.
- ASSAY_SUMMARY: Body weight of rats in method B
- Parameters: species or system male Wistar strain rats
- RUN_PARAMETERS: rat, in vivo
Respond with the figure and its unit, in that order.

Look over these answered cases.
CCOc1cc(C=C(C)C(=O)OC2CCC34CC35CCC3(C)C(C(C)CCC(C)=C(C)C)CCC3(C)C5CCC4C2(C)C)ccc1O (stereo not shown) [Example 140] ... 147 ± 9.5 g
COc1cc(C(=O)OC2CCC34CC35CCC3(C)C(C(C)CCC=C(C)C)CCC3(C)C5CCC4C2(C)C)ccc1N (stereo not shown) [Example 167] ... 143 ± 10.4 g
CCC(=Cc1ccc(O)c(OC)c1)C(=O)OC1CCC23CC24CCC2(C)C(C(C)CCC=C(C)C)CCC2(C)C4CCC3C1(C)C (stereo not shown) [Example 120] ... 144 ± 9.4 g

// for each compound in input: emit Body weight during feed period, 8th day
1. CCOc1ccc(N)cc1C=CC(=O)OC1CCC23CC24CCC2(C)C(C(C)CCC=C(C)C)CCC2(C)C4CCC3C1(C)C (stereo not shown) [Example 183]
2. CC(C)=CCCC(C)C1CCC2(C)C3CCC4C(C)(C)C(OC(=O)C(C)=Cc5ccc(N)cc5)CCC45CC35CCC12C (stereo not shown) [Example 205]
3. C=C(CCC(C)C1CCC2(C)C3CCC4C(C)(C)C(OC(=O)C(C)=Cc5ccc(O)c(OC)c5)CCC45CC35CCC12C)C(C)C (stereo not shown) [Example 118]
4. CC(=Cc1cccc(N)c1)C(=O)OC1CCC23CC24CCC2(C)C(C(C)CCC(C)=C(C)C)CCC2(C)C4CCC3C1(C)C (stereo not shown) [Example 212]
5. COc1cc(C=CC(=O)OC2CCC34CC35CCC3(C)C(C(C)CCC=C(C)C)CCC3(C)C5CCC4C2(C)C)ccc1N (stereo not shown) [Example 177]

1: 142 ± 8.8 g; 2: 142 ± 9.8 g; 3: 147 ± 9.2 g; 4: 143 ± 9.2 g; 5: 142 ± 9.6 g

Each compound below has a reported value. Please supply its Body weight during feed period, 8th day.
1. COc1cc(C=C(C)C(=O)OC2CCC34CC35CCC3(C)C(C(C)CCC=C(C)C)CCC3(C)C5CCC4C2(C)C)ccc1O (stereo not shown) [Example 114]
2. C=C(CCC(C)C1CCC2(C)C3CCC4C(C)(C)C(OC(=O)C(C)=Cc5ccc(N)c(OC)c5)CCC45CC35CCC12C)C(C)C (stereo not shown) [Example 191]

1. 145 ± 9.5 g
2. 142 ± 9.6 g

###

- Test system: serum lipids and serum lipid hydroperoxide
- ASSAY_SUMMARY: Pharmacological test method A for anti-hyperlipidemic activity (serum lipids, 2 weeks feeding)
- Assay type: in vivo, male Wistar strain rats
- RUN_PARAMETERS: 1% in hyperlipidemic diet, 2 weeks
- Experimental: Male Wistar strain rats (100±lg, each 10 rats were formed into a group) were used as test animals. […] Then, TC, HDL-C, TG, PL, and LPO in the serum were measured in the manner that will be described below. A TC kit-K (supplied by Nippon Shoji Kaisha, Ltd.) was used. […] The produced red quinone coloring matter is measured by colorimetry for absorbance at 500 nm using a spectrophotometer, thereby determining the TC: […]
OUTCOME_MEASURE: LPO in serum

CCOc1cc(C=CC(=O)OC2CCC34CC35CCC3(C)C(C(C)CCC(C)=C(C)C)CCC3(C)C5CCC4C2(C)C)ccc1O (centres unmarked) [Example 71, cyclobranyl-3-ethoxy-4-hydroxycinnamate] ... 1.96 nmol/mL
CC(C)=C(C)CCC(C)C1CCC2(C)C3CCC4C(C)(C)C(OC(=O)/C=C/c5ccc(O)c(O)c5)CCC45CC35CCC12C (centres unmarked) [Example 32, cyclobranyl-3,4-dihydroxycinnamate] ... 2.06 nmol/mL
C=C(CCC(C)C1CCC2(C)C3CCC4C(C)(C)C(OC(=O)C=Cc5ccc(OC(C)=O)c(OCC)c5)CCC45CC35CCC12C)C(C)C (centres unmarked) [Example 72] ... 2.07 nmol/mL
CC(=O)Nc1ccc(C(=O)OC2CCC34CC35CCC3(C)C(C(C)CCC=C(C)C)CCC3(C)C5CCC4C2(C)C)cc1 (centres unmarked) [Example 20, cycloartenyl-p-acetamidobenzoate] ... 2.02 nmol/mL

I have 6 compounds here; please give me LPO in serum for each one.
1. CC(C)=CCCC(C)C1CCC2(C)C3CCC4C(C)(C)C(OC(=O)C=Cc5ccc([N+](=O)[O-])cc5)CCC45CC35CCC12C (centres unmarked) [Example 101]
2. COc1cc(C=CC(=O)OC2CCC34CC35CCC3(C)C(C(C)CCC(C)=C(C)C)CCC3(C)C5CCC4C2(C)C)ccc1O (centres unmarked) [Example 100-2, cyclobranyl-4-hydroxy-3-methoxycinnamate]
3. CC(C)=C(C)CCC(C)C1CCC2(C)C3CCC4C(C)(C)C(OC(=O)C=Cc5ccc(N)cc5)CCC45CC35CCC12C (centres unmarked) [Example 104]
4. C=C(CCC(C)C1CCC2(C)C3CCC4C(C)(C)C(OC(=O)CCCCCCC/C=C\C/C=C\CCCCC)CCC45CC35CCC12C)C(C)C (centres unmarked) [Example 93]
5. CC(C)=CCCC(C)C1CCC2(C)C3CCC4C(C)(C)C(OC(=O)c5ccccc5[N+](=O)[O-])CCC45CC35CCC12C (centres unmarked) [Example 16, cycloartenyl-o-nitrobenzoate]
6. C=C(CCC(C)C1CCC2(C)C3CCC4C(C)(C)C(OC(=O)C=Cc5ccc(O)c(O)c5)CCC45CC35CCC12C)C(C)C (centres unmarked) [Example 82]

1: 2.12 nmol/mL; 2: 1.59 nmol/mL; 3: 2.01 nmol/mL; 4: 1.70 nmol/mL; 5: 2.04 nmol/mL; 6: 2.08 nmol/mL

Item: CC(C)=C(C)CCC(C)C1CCC2(C)C3CCC4C(C)(C)C(OC(=O)c5ccccc5N)CCC45CC35CCC12C (centres unmarked) [Example 47, cyclobranyl-o-aminobenzoate] Test system: serum lipids and serum lipid hydroperoxide Read-out: LPO in serum Value: ? 2.03 nmol/mL

###

- System: serum lipids and serum lipid hydroperoxide
- ASSAY_SUMMARY: Pharmacological test method A for anti-hyperlipidemic activity (serum lipids, 2 weeks feeding)
- Type: in vivo, male Wistar strain rats
- RUN_PARAMETERS: versus control group
What TC % of diff. was measured for each of the following?
Give bare numbers, in %.

Worked cases, answers included:
COc1cc(C(=O)OC2CCC34CC35CCC3(C)C(C(C)CCC(C)=C(C)C)CCC3(C)C5CCC4C2(C)C)ccc1O (stereo not drawn) [Example 37, cyclobranyl-4-hydroxy-3-methoxybenzoate] ... -16.3
CC(C)=C(C)CCC(C)C1CCC2(C)C3CCC4C(C)(C)C(OC(=O)c5ccc(O)cc5)CCC45CC35CCC12C (stereo not drawn) [Example 58, cyclobranyl-p-hydroxybenzoate] ... -13.7

Requested field: TC % of diff.. Item: C=C(CCC(C)C1CCC2(C)C3CCC4C(C)(C)C(OC(=O)C=Cc5ccc(O)c(OC)c5)CCC45CC35CCC12C)C(C)C (stereo not drawn) -13.9

###

- System: serum lipids and serum lipid hydroperoxide
- ASSAY_SUMMARY: Pharmacological test method A for anti-hyperlipidemic activity (serum lipids, 2 weeks feeding)
- Format: in vivo, male Wistar strain rats
- RUN_PARAMETERS: versus control group
Please go through the items and note down their TC % of diff..
Answers are plain numbers, in %.

Consider the following illustrative entries.
CCCCC/C=C\C/C=C\CCCCCCCC(=O)OC1CCC23CC24CCC2(C)C(C(C)CCC=C(C)C)CCC2(C)C4CCC3C1(C)C (stereo not drawn) [Example 25, cycloartenyl linolate] ... -18.1
CC(C)=C(C)CCC(C)C1CCC2(C)C3CCC4C(C)(C)C(OC(=O)c5ccc(N)cc5)CCC45CC35CCC12C (stereo not drawn) [Example 43, cyclobranyl-p-aminobenzoate] ... -18.1
C=C(CCC(C)C1CCC2(C)C3CCC4C(C)(C)C(OC(=O)C=Cc5ccc(OC(C)=O)c(OCC)c5)CCC45CC35CCC12C)C(C)C (stereo not drawn) ... -14.1
CC(C)=C(C)CCC(C)C1CCC2(C)C3CCC4C(C)(C)C(OC(=O)c5ccccc5N)CCC45CC35CCC12C (stereo not drawn) [Example 47, cyclobranyl-o-aminobenzoate] ... -10.2
COc1cc(C=CC(=O)OC2CCC34CC35CCC3(C)C(C(C)CCC(C)=C(C)C)CCC3(C)C5CCC4C2(C)C)ccc1O (stereo not drawn) [Example 100-2, cyclobranyl-4-hydroxy-3-methoxycinnamate] ... -18.7

Quick check: TC % of diff. of CCCOc1cc(C=CC(=O)OC2CCC34CC35CCC3(C)C(C(C)CCC=C(C)C)CCC3(C)C5CCC4C2(C)C)ccc1O (stereo not drawn) ? 14.3

###

- Tested on: serum lipids and serum lipid hydroperoxide
- ASSAY_SUMMARY: Pharmacological test method A for anti-hyperlipidemic activity (serum lipids, 2 weeks feeding)
- Type: in vivo, male Wistar strain rats
- RUN_PARAMETERS: versus control group
So I've got a bunch of molecules here, and I need their TG % of diff. values.
One number for each entry, in %.

C=C(CCC(C)C1CCC2(C)C3CCC4C(C)(C)C(OC(=O)C=Cc5cccc(N)c5)CCC45CC35CCC12C)C(C)C (stereo not shown) ... -16.2
CC(C)=CCCC(C)C1CCC2(C)C3CCC4C(C)(C)C(OC(=O)c5ccc(N)cc5)CCC45CC35CCC12C (stereo not shown) [Example 19, cycloartenyl-p-aminobenzoate] ... -12.9
CCCCC/C=C\C/C=C\CCCCCCCC(=O)OC1CCC23CC24CCC2(C)C(C(C)CCC=C(C)C)CCC2(C)C4CCC3C1(C)C (stereo not shown) [Example 25, cycloartenyl linolate] ... -6.2
C=C(CCC(C)C1CCC2(C)C3CCC4C(C)(C)C(OC(=O)c5ccc(O)c(OC)c5)CCC45CC35CCC12C)C(C)C (stereo not shown) ... -0.3
CC(C)=C(C)CCC(C)C1CCC2(C)C3CCC4C(C)(C)C(OC(=O)c5ccc(N)cc5)CCC45CC35CCC12C (stereo not shown) [Example 43, cyclobranyl-p-aminobenzoate] ... -8.2

Attention now turns to another entry.
Given the molecule CCCOc1cc(C=CC(=O)OC2CCC34CC35CCC3(C)C(C(C)CCC=C(C)C)CCC3(C)C5CCC4C2(C)C)ccc1O (stereo not shown) , what is its reported TG % of diff.? -0.3
